- PROCEDURE_SUMMARY: folding enthalpy; higher = less favourable; fluorescence melt of hairpins on a sequencing array, two-state fit
- CONDITION_DETAILS: sodium 0.088 M
ATTRIBUTE_MEASURED: folding enthalpy (kcal/mol)
Give just the number in kcal/mol; leave the unit off.

Item under review: GCACCAGGAAACCAGTGC ((((..(....)..)))) . Reported folding enthalpy?
-30.5

Thanks! And GAGGGGGAAACCCCTC ((((((....)))))) ?
-30

* * *

- PROCEDURE_SUMMARY: folding enthalpy; higher = less favourable; fluorescence melt of hairpins on a sequencing array, two-state fit
- CONDITION_DETAILS: sodium 0.088 M
Lab note: anything with folding enthalpy at or over -20 kcal/mol counts as 1; the rest go in 0.

Completed entries (count: 2):
[
  {
    "CHAIN": "GTCGAGGCGAAAGCCGAC (((..(((....))))))",
    "CLASS": 1
  },
  {
    "CHAIN": "GCTGTGGGAAACTACAGC (((((.(....).)))))",
    "CLASS": 0
  }
]

Could you now consider this next sequence?
Is reported folding enthalpy greater than or equal to -20 kcal/mol here: GTTGTTGGAAACGACAAC (((((.(....).)))))
1
